# Tested on: SW 1271 complex tumor spheroid viability
# Method: Anticancer human tumor SW 1271 cell line growth inhibition;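 note: spheroids exposed to agents for seven days before readout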
# Condition context: curve of first compound; second compound 0.0949 µM
Measured property: IC50

Record excerpt, results attached:
CC(C)n1c(=O)n(C)c2cnc3cc(F)c(-c4ccc(OCCCN5CCCCC5)nc4)cc3c21 + CC[C@@]1(O)C(=O)OCc2c1cc1n(c2=O)Cc2cc3c(CN(C)C)c(O)ccc3nc2-1 :: < 31.6 nM
COc1cc(C)[nH]c(=O)c1CN1CCc2c(Cl)cc(C(OC)C3COC3)c(Cl)c2C1=O (stereo not given) + CC[C@@]1(O)C(=O)OCc2c1cc1n(c2=O)Cc2cc3c(CN(C)C)c(O)ccc3nc2-1 :: < 31.6 nM
CNCc1ccc(-c2cc(-c3nc(-c4ccc(S(=O)(=O)C(C)C)cc4)cnc3N)on2)cc1 + CC[C@@]1(O)C(=O)OCc2c1cc1n(c2=O)Cc2cc3c(CN(C)C)c(O)ccc3nc2-1 :: < 9.49 nM

# input Tell me measured IC50 for [2H]c1nc(C)nc([2H])c1-c1cc(NC[C@@H](C)c2cccc3c(C(=O)NC)ccnc23)ncn1 + CC[C@@]1(O)C(=O)OCc2c1cc1n(c2=O)Cc2cc3c(CN(C)C)c(O)ccc3nc2-1 please.
# output < 31.6 nM

# input Give a short answer stating reported IC50 for Cc1sc2c(c1C)C(c1ccc(Cl)cc1)=NC(CC(=O)Nc1ccc(O)cc1)c1nnc(C)n1-2 (stereo not given) + CC[C@@]1(O)C(=O)OCc2c1cc1n(c2=O)Cc2cc3c(CN(C)C)c(O)ccc3nc2-1 .
# output < 9.49 nM

###

# Test system: SW 1271 complex tumor spheroid viability
# Method: Anticancer human tumor SW 1271 cell line growth inhibition;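 note: spheroids exposed to agents for seven days before readout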;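 for viability, T/C: percent of DMSO vehicle control luminescence so 100% = vehicle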
# Condition context: second compound 0.0003 µM; first compound 0.0316 µM; stronger effect = lower value
A collection of compounds and their measured viability, T/C
The figure you give is taken to be in %; do not add the unit.

Sample answers from the record:
COc1ccc([C@@H](O)c2cc(-c3ncnc4cc(N5CCOCC5)ccc34)c(F)cc2Cl)nn1 + COc1cc2c(cc1O)CCNC21CSC2c3c(OC(C)=O)c(C)c4c(c3C(COC1=O)N1C(O)C3Cc5cc(C)c(OC)c(O)c5C(C21)N3C)OCO4 :: 35.7
[2H]c1nc(C)nc([2H])c1-c1cc(NC[C@@H](C)c2cccc3c(C(=O)NC)ccnc23)ncn1 + COc1cc2c(cc1O)CCNC21CSC2c3c(OC(C)=O)c(C)c4c(c3C(COC1=O)N1C(O)C3Cc5cc(C)c(OC)c(O)c5C(C21)N3C)OCO4 :: 33.1
Cc1cc(C)c(CNC(=O)c2cc(-c3ccc(CN4CCOCC4)cc3)cc3c2cnn3C2CCCC2)c(=O)[nH]1 + COc1cc2c(cc1O)CCNC21CSC2c3c(OC(C)=O)c(C)c4c(c3C(COC1=O)N1C(O)C3Cc5cc(C)c(OC)c(O)c5C(C21)N3C)OCO4 :: 32.9

# input Give the value of viability, T/C reported for the following: COc1cc(C)[nH]c(=O)c1CN1CCc2c(Cl)cc(C(OC)C3COC3)c(Cl)c2C1=O (stereo unspecified) + COc1cc2c(cc1O)CCNC21CSC2c3c(OC(C)=O)c(C)c4c(c3C(COC1=O)N1C(O)C3Cc5cc(C)c(OC)c(O)c5C(C21)N3C)OCO4
# output 33.3

# input Report viability, T/C, nothing else, for this compound: CC1COCCN1c1cc(-c2ccnn2C)c2ccnc(-c3ccn[nH]3)c2n1 (stereo unspecified) + COc1cc2c(cc1O)CCNC21CSC2c3c(OC(C)=O)c(C)c4c(c3C(COC1=O)N1C(O)C3Cc5cc(C)c(OC)c(O)c5C(C21)N3C)OCO4
# output 10.8

# input Determine its reported viability, T/C: CC(C)n1c(=O)n(C)c2cnc3cc(F)c(-c4ccc(OCCCN5CCCCC5)nc4)cc3c21 + COc1cc2c(cc1O)CCNC21CSC2c3c(OC(C)=O)c(C)c4c(c3C(COC1=O)N1C(O)C3Cc5cc(C)c(OC)c(O)c5C(C21)N3C)OCO4
# output 28.5
